Test: HepG2 cell cytotoxicity, dose response, cytotoxicity control for Shn3 inhibitor project, CellTiter-Glo, cherry-picked (AID 624134)
Type: functional, cell-based
Activity calls are given as the source filed them.
metric: AC50

Known results for compounds:
compound=c1ccc(CCNc2ccnc3cc4ccccc4cc23)cc1 measured="8.78 µM (active)"
compound=C[n+]1c2n(c3ccccc31)N=C(c1cc(C(C)(C)C)c(O)c(C(C)(C)C)c1)CS2 measured="13 µM (active)"
compound="CC(Nc1ncnc2sccc12)c1ccccc1 (centres undefined)" measured="1.71 µM (active)"

Next compound, AC50 to be filled in.
(Q) Specify AC50 for Cc1cccc(C)c1-n1nnnc1C(c1cc2ccccc2o1)N1CCC(n2c(O)nc3ccccc32)CC1 (centres undefined) and stop.
(A) 2.97 µM (active)

----------
Measured EC50 values are reported for all entries that follow.
Test: Luminescence Cell-Based Dose Confirmation HTS to Identify Activators of 5'UTR Stem-Loop Driven Alpha-Synuclein mRNA Translation in H4 Neuroglioblastoma Cells. [Related pubchem assays: 1829 (Project Summary), 1814 (Primary HTS)]
Format: functional
Calls of active or inactive are those of the source.

(Q) Specify EC50 for COc1ccc2c(c1)C(=O)CC(c1ccc3c(c1)OCCO3)O2 (centres undefined) and stop.
(A) 7.88 µM (active)

----------
Measured AC50 values are reported for all entries that follow.
Test: Shn3 3'UTR reporter inhibitors, dose response, cell-based, Clone20 osteoblasts, firefly luciferase, cherry-picked (AID 624132);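 further: firefly luciferase luminescence from reporter carrying the Shn3 3'UTR in osteoblasts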
Type: functional
Activity calls are given as the source filed them.

Known results for molecules:
molecule="O=C1CC(Sc2nnnn2-c2ccccc2)C(=O)N1c1cccc(Cl)c1 (stereo not given)" metric=AC50 measured="8.53 µM (active)"
molecule="Cc1cccc(C)c1-n1nnnc1C(c1cc2ccccc2o1)N1CCC(n2c(O)nc3ccccc32)CC1 (stereo not given)" metric=AC50 measured="3.05 µM (active)"

(Q) Specify AC50 for COc1cc(CN2CCc3ccccc3C2)ccc1O and stop.
(A) 0.912 µM (active)

(Q) Specify AC50 for c1ccc(CCNc2ccnc3cc4ccccc4cc23)cc1 and stop.
(A) 1.62 µM (active)

(Q) Specify AC50 for C[n+]1c2n(c3ccccc31)N=C(c1cc(C(C)(C)C)c(O)c(C(C)(C)C)c1)CS2 and stop.
(A) 5.92 µM (active)

----------
Target: Endoribonuclease toxin MazF (Escherichia coli K-12)
Sequence (P0AE70 whole entry): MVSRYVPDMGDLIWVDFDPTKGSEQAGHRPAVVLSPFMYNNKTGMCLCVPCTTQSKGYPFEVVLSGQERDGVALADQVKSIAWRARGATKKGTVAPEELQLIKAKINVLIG
Assay: fluorescent RNA oligo signal without MazF, dose response, counter-screen for MazEF activator project, biochemical, fluorescence, single-stranded RNase substrate (AID 588502)
Format: functional
Active and inactive are the calls of the source.
metric: EC50

(Q) Specify EC50 for O=[N+]([O-])c1ccc(N/N=C/c2ccccc2)c(F)c1 and stop.
(A) 27.2 µM (inactive)

(Q) Specify EC50 for O=C(Nc1ccccc1)c1ccc(NCCc2ccccc2)c([N+](=O)[O-])c1 and stop.
(A) 84.3 µM (inactive)

(Q) Specify EC50 for O=c1oc2c(cc1O)oc(=O)c1cc(O)c(O)c(O)c12 and stop.
(A) > 99 µM (inactive)

(Q) Specify EC50 for CC1=CC2=C(C=O)C(=O)C(C)(O)C(O)C2=CO1 (stereo not drawn) and stop.
(A) > 99 µM (inactive)

(Q) Specify EC50 for CCOC(=O)/C(C#N)=N\Nc1cc(Cl)ccc1OC and stop.
(A) 44.1 µM (inactive)

----------
Target: UniProt:P0AE70
Experiment: MazF toxin RNase activators, dose response, biochemical, fluorescence, single-stranded RNA substrate, uHTS hits (AID 588481)
Type: functional
Calls of active or inactive are those of the source.
metric: EC50

Known results for compounds:
compound=O=c1oc2c(cc1O)oc(=O)c1cc(O)c(O)c(O)c12 assay_system=UniProt:P0AE70 metric=EC50 measured="80.5 µM (inactive)"
compound=CCN(CC)S(=O)(=O)c1ccc(C(=O)/C=C/c2ccc(-c3ccc([N+](=O)[O-])cc3)o2)cc1 assay_system=UniProt:P0AE70 metric=EC50 measured="> 99 µM (inactive)"
compound=Cn1cccc1/C=C1\CCC/C(=C\c2cccn2C)C1=O assay_system=UniProt:P0AE70 metric=EC50 measured="> 99 µM (inactive)"
compound="CC1=CC2=C(C=O)C(=O)C(C)(O)C(O)C2=CO1 (stereo not drawn)" assay_system=UniProt:P0AE70 metric=EC50 measured="> 99 µM (inactive)"
compound=O=[N+]([O-])c1ccc(N/N=C/c2ccccc2)c(F)c1 assay_system=UniProt:P0AE70 metric=EC50 measured="> 99 µM (inactive)"

(Q) Specify EC50 for Cn1c(=O)c2[nH]c(-c3ccccc3)c(O)c2n(C)c1=O and stop.
(A) 33.8 µM (inactive)

(Q) Specify EC50 for CCOC(=O)/C(C#N)=N\Nc1cc(Cl)ccc1OC and stop.
(A) > 99 µM (inactive)

(Q) Specify EC50 for O=C(Nc1ccccc1)c1ccc(NCCc2ccccc2)c([N+](=O)[O-])c1 and stop.
(A) > 99 µM (inactive)
